Test system: Danio rerio Tg(wt1b:EGFP) embryo, pronephros
experiment.summary: glomerular separation, fold change vs DMSO control; higher = glomeruli further apart (abnormal)
assay.setup: 25 µM; exposure: 24-48 hpf
Structures can show the parent of a compound that is named as a salt.
measurement.name: glomerular separation
The answer should be written as a number, with no unit following it.

Please review the following examples before continuing.
compound: CN1CCc2cccc3c2[C@H]1Cc1ccc(O)c(O)c1-3 [R(-) Apomorphine hydrochloride hemihydrate]
glomerular separation: 0.765

compound: NS(=O)(=O)c1cc2c(cc1Cl)N=C(CSCc1ccccc1)NS2(=O)=O [Benzthiazide]
glomerular separation: 0.917

compound: CCCc1nc2c(C)cc(-c3nc4ccccc4n3C)cc2n1Cc1ccc(-c2ccccc2C(=O)O)cc1
glomerular separation: 1.22

Consider the record given below.
q: Form field - read-out: glomerular separation; system: Danio rerio Tg(wt1b:EGFP) embryo, pronephros; submitted item: O=C1c2c(O)cccc2Cc2cccc(O)c21
a: 0.949

* * *

Listing of entries alongside the reported glomerular width.
System: Danio rerio Tg(wt1b:EGFP) embryo, pronephros
experiment.summary: glomerular width (mean of left and right), fold change vs DMSO control; higher = wider glomerulus
assay.setup: 25 µM; exposure: 24-48 hpf
Structures can show the parent of a compound that is named as a salt.
The answer should be written as a number, with no unit following it.

compound: Cc1ccc(S(=O)(=O)NC(=O)NN2CCCCCC2)cc1 [Tolazamide]
numeric.value: 0.948
//
compound: COc1cccc2c1C(=O)c1c(O)c3c(c(O)c1C2=O)C[C@@](O)(C(=O)CO)C[C@@H]3O[C@H]1C[C@H](N)[C@H](O)[C@H](C)O1 [Doxorubicin hydrochloride]
numeric.value: 0.959
//
compound: O=C1NCN(c2ccccc2)C12CCN(CCCC(c1ccc(F)cc1)c1ccc(F)cc1)CC2
numeric.value: 0.687
//
compound: O=C1OCCN1/N=C/c1ccc([N+](=O)[O-])o1
numeric.value: 0.996
//
compound: Cc1ccc(NC(=O)c2ccc(CN3CCN(C)CC3)cc2)cc1Nc1nccc(-c2cccnc2)n1
numeric.value: 0.989
//
compound: COc1cc(NC(C)CCCN)c2ncccc2c1 (stereo not drawn) [Primaquine diphosphate]
numeric.value: 1.04

q: Give its glomerular width value. Item: NC(=O)c1ncn([C@@H]2O[C@H](CO)[C@@H](O)[C@H]2O)n1
a: 0.965

q: Nc1nc2c(ncn2COC(CO)CO)c(=O)[nH]1 , same question.
a: 1.01

* * *

Listing of entries alongside the reported glomerular width.
System: Danio rerio Tg(wt1b:EGFP) embryo, pronephros
experiment.summary: glomerular width (mean of left and right), fold change vs DMSO control; higher = wider glomerulus
assay.setup: 25 µM; exposure: 24-48 hpf
The answer should be written as a number, with no unit following it.

q: Give its glomerular width value. Item: CC[N+](CC)(CC(=O)Nc1c(C)cccc1C)Cc1ccccc1 [Denatonium benzoate]
a: 0.844

q: Nc1ccn([C@H]2CC[C@@H](CO)O2)c(=O)n1 , same question.
a: 0.966

q: COc1ncnc(NS(=O)(=O)c2ccc(N)cc2)c1OC , same question.
a: 0.997

q: CC(C)(C)C(=O)OCOC(=O)[C@@H]1N2C(=O)[C@@H](NC(=O)[C@H](N)c3ccccc3)[C@H]2SC1(C)C , same question.
a: 1

Where do the numbers come from? From the supplement of paper PMC7366291.
